study.system: SARS-CoV-2 RBD (wild type) (SARS-CoV-2, UniProt P0DTC2 319-539)
test: ELISA on coated RBD
endpoint.name: EC50 (µg/mL)

binder	endpoint.name	result.number
C077 (antibody, V domains shown) VH: QVQLVQSGAEVKKPGASVKVSCKASGYTFTSYAMHWVRQAPGQRLEWMGWINTDNGNTKYSQKFQGRVTITRDTSASTAYMELSSLRSEDTAVYYCAREGALTNWFDPWGQGTLVTVSS VL: SYELTQPPSVSVAPGQTARIPCGGNNIGSKSVHWYQQKPGQAPVLVVYDDSDRPSGIPERFSGSNSGNTATLTISRVEAGDEADYYCQVWDSSSDLHVVFGGGTKLTVL	EC50	0.0459
C521 (antibody, V domains shown) VH: EVQLVESGGGLVRPGGSLTLSCVASGFTVGSNFMSWVRQAPGKGLEWVSLIYNSGGTHYADSVKGRFTISRDRSKNTLYLQMNSLRAEDTAIYYCANHGYYYYMDVWGKGTTVTVS VL: QSALTQPASVSGSPGQSITISCTGTGSDIGAYNYVSWHQHHPGKAPKLIIYDVSNRPSGVSNRFSGSKSGNTASLTISGLQAEDEADYYCTSYTNTTTPWVFGGGTKVTVL	EC50	0.0069
